- assay.text: Plasma pharmacokinetics, cycle 1 day 1 (LC–MS/MS, non-compartmental analysis)
- Assay type: in vivo, human
- applied.conditions: human, plasma, oral, 5 mg, Tau 24 hr, cycle 1 day 1; read-out: Cmax, geometric mean
quantity.name: Cmax (ng/mL)
Express the result in ng/mL but write the number alone.

Inquiry: Endpoint output: Cmax of `C[C@@H]1COCCN1c1cc([C@]2(O)C[C@H]3CC[C@@H](C2)O3)c2cnn(-c3cc[nH]n3)c2n1` . Value?
Reply text: 500

====

- assay.text: Plasma pharmacokinetics, cycle 1 day 1 (LC–MS/MS, non-compartmental analysis)
- Format: in vivo, human
- applied.conditions: human, plasma, oral; Dose 100 mg, Tau 24 hr, cycle 1 day 1; read-out: AUC0-INF, geometric mean
quantity.name: AUC(0-inf) (ng·h/mL)
Express the result in ng·h/mL but write the number alone.

Inquiry: Endpoint output: AUC(0-inf) of `C[C@@H]1COCCN1c1cc([C@]2(O)C[C@H]3CC[C@@H](C2)O3)c2cnn(-c3cc[nH]n3)c2n1` . Value?
Reply text: 32300

Reference source for all entries: paper PMC10287555
